Measured values drawn from patent US11415579B2 for this set.

MEASURED TARGET: Cdk2(T182C) (C177A) (Homo sapiens, UniProt P24941, C177A/T182C)
Construct: poly-histidine; made in house; host or cells: E. coli
MEASUREMENT DESCRIPTION: Kinetic thiol consumption assay with Cdk2 mutant T182C
Type: binding
Parameters: key: rate constant with Cdk2 ÷ rate constant with model thiol (fold)
RUN CONDITIONS: Cdk2 T182C, additional mutation C177A
# Rate enhancement, Cdk2 T182C listing for each entry below

COMPOUND: N#Cc1ccncn1
MEASURED TARGET: Cdk2(T182C) (C177A) (Homo sapiens, UniProt P24941, C177A/T182C)
Rate enhancement, Cdk2 T182C: 0.9515
--
COMPOUND: C=CC(=O)N(C(=O)C=C)c1c2ccccc2n2c(C)nc3ccccc3c12
MEASURED TARGET: Cdk2(T182C) (C177A) (Homo sapiens, UniProt P24941, C177A/T182C)
Rate enhancement, Cdk2 T182C: 0
--
COMPOUND: C=CC(=O)N1CCN(Cc2ccc(Cl)cc2)CC1
MEASURED TARGET: Cdk2(T182C) (C177A) (Homo sapiens, UniProt P24941, C177A/T182C)
Rate enhancement, Cdk2 T182C: 2.26
--
COMPOUND: C=CC(=O)N(CCCN1CCOCC1)Cc1ccncc1
MEASURED TARGET: Cdk2(T182C) (C177A) (Homo sapiens, UniProt P24941, C177A/T182C)
Rate enhancement, Cdk2 T182C: 0.4571
--
COMPOUND: C=CC(=O)N1CCN(c2ccccc2C(N)=O)CC1
MEASURED TARGET: Cdk2(T182C) (C177A) (Homo sapiens, UniProt P24941, C177A/T182C)
Rate enhancement, Cdk2 T182C: 2.129
--
COMPOUND: C=CC(=O)Nc1cccc(C(F)(F)F)c1 [EL-1007]
MEASURED TARGET: Cdk2(T182C) (C177A) (Homo sapiens, UniProt P24941, C177A/T182C)
Rate enhancement, Cdk2 T182C: 2.5
--
COMPOUND: C=CC(=O)Nc1nc2cc3c(cc2s1)OC(F)(F)O3
MEASURED TARGET: Cdk2(T182C) (C177A) (Homo sapiens, UniProt P24941, C177A/T182C)
Rate enhancement, Cdk2 T182C: 12.86
--
COMPOUND: C=CC(=O)NC1CCN(Cc2ccccc2)CC1
MEASURED TARGET: Cdk2(T182C) (C177A) (Homo sapiens, UniProt P24941, C177A/T182C)
Rate enhancement, Cdk2 T182C: 0.1316
--
COMPOUND: C=CC(=O)Nc1ccc2c(c1)OC1(CCCC1)O2
MEASURED TARGET: Cdk2(T182C) (C177A) (Homo sapiens, UniProt P24941, C177A/T182C)
Rate enhancement, Cdk2 T182C: 1.059
--
COMPOUND: C=CC(=O)N1CCC2(CC1)NC(=O)C1(CCCCC1)N2
MEASURED TARGET: Cdk2(T182C) (C177A) (Homo sapiens, UniProt P24941, C177A/T182C)
Rate enhancement, Cdk2 T182C: 0.8826
--
COMPOUND: C=CC(=O)NCc1ccc(F)cc1
MEASURED TARGET: Cdk2(T182C) (C177A) (Homo sapiens, UniProt P24941, C177A/T182C)
Rate enhancement, Cdk2 T182C: 0.679
